Provide the recorded pEC50 for the entries that follow.
- target-or-system: human HAQ isoform of STING (Homo sapiens (Human), UniProt Q86WV6, G230A/H232R/R293Q/R71H)
- Sequence (Q86WV6 whole entry R71H/G230A/H232R/R293Q, canonical isoform): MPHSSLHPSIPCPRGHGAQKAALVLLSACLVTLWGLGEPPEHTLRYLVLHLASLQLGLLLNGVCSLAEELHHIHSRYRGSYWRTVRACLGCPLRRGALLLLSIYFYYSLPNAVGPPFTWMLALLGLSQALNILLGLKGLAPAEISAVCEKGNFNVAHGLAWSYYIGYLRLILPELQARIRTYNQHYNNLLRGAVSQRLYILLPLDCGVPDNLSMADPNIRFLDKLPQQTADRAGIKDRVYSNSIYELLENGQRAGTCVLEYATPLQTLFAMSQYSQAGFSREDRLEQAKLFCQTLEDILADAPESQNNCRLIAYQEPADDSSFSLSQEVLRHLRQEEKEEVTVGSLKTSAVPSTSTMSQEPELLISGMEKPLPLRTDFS
- protocol-details: THP-1 STING Lucia ISG reporter cell line assay
- conditions: 24 h incubation, luminescence, normalized to ML RR-S2 CDA 40 μM; read-out: EC50 THP-I STING Lucia ISG cells
- Protocol: THP-1 STING Lucia ISG cells (InvivoGen #thpl-isg) were cultured in RPMI-1640 containing 2 mM L-glutamine, 25 mM HEPES, 100 μg/mL Normocin (InvivoGen) and 10% heat-inactivated FBS. Cells were seeded at a density of 7×10^5 cells/mL, maintained at 37° C./5% CO2, and passaged every 3-4 days. […] Data analysis: Luminescence raw data was normalized % activity relative to the signal of the positive control wells and negative control wells which were not treated with compound. […]
pEC50: −log10 of the molar value.

[in] Using the record for COc1cccc2sc(C(=O)O)c(-c3nc4cc(C(N)=O)ccc4n3CCn3c(-c4c(C(=O)O)sc5cccc(OC)c45)nc4cc(C(N)=O)ccc43)c12 (single isomer, unassigned) [Example 5.1] , report its pEC50.
[out] < 4.40

[in] Let us now turn to CCOC(=O)c1sc2cccc(Cl)c2c1-c1nc2c(OC)c(C(N)=O)ccc2n1CCn1c(-c2c(C(=O)OCC)sc3cccc(Cl)c23)nc2c(OC)c(C(N)=O)ccc21 [Example 21]
[out] 7.72

[in] Let us now turn to CCOc1cccc2sc(C(=O)O)c(-c3nc4cc(C(N)=O)ccc4n3CCn3c(-c4c(C(=O)O)sc5cccc(OCC)c45)nc4cc(C(N)=O)ccc43)c12 [Example 24]
[out] < 4.40
